The origin of these recorded values is the supplement of paper PMC11208160.

TEST_NAME: recombinant barcode read abundance after kanamycin selection (control-corrected) (log10(CPM+1)); higher = more efficient recombination; sequences stand for … in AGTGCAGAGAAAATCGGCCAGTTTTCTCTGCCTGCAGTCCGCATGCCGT…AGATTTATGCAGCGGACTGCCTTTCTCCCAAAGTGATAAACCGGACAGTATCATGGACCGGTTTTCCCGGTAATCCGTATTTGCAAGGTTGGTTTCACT; site = the 11-nt target
Reported recombinant barcode read abundance (log10) maps to class as: low-valued (below 0.1), mid-valued (0.1 to below 0.6), high-valued (0.6 or more)

INPUT_SEQUENCE: CAAGACCCTTGGGTTCTAACCTGTTGCCT (site CAAGACCCTAG)
GROUP_LABEL: high-valued

INPUT_SEQUENCE: ATGAAGCCTTGGGTTCTAACCTGTTGCTT (site ATGAAGCCTAA)
GROUP_LABEL: mid-valued

INPUT_SEQUENCE: AACATTGCTTGGGTTCTAACCTGTTGCCT (site AACAATGCTAG)
GROUP_LABEL: high-valued

INPUT_SEQUENCE: GTATCATCTTGGGTTCTAACCTGTTGCCT (site GTATCAGCTAG)
GROUP_LABEL: low-valued

INPUT_SEQUENCE: AAGAGCACTTGGGTTCTAACCTGTTGCCT (site CAGAGCACTAG)
GROUP_LABEL: low-valued

INPUT_SEQUENCE: CGGTCATCTTGGGTTCTAACCTGTTGCCT (site CGATCATCTAG)
GROUP_LABEL: mid-valued

INPUT_SEQUENCE: GGTGGGTCTTGGGTTCTAACCTGTTGCCT (site GGTGGGTCTAC)
GROUP_LABEL: mid-valued

INPUT_SEQUENCE: GAGCGTACTTGGGTTCTAACCTGTTGCAT (site GAGCGTACTAT)
GROUP_LABEL: high-valued

INPUT_SEQUENCE: TCACGTGCTTGGGTTCTAACCTGTTGCCT (site TCACGTGCTAG)
GROUP_LABEL: mid-valued

---

TEST_NAME: recombinant UMI read abundance after kanamycin selection (control-corrected) (log10(CPM+1)); higher = more efficient recombination; extreme values may be limits of the assay; sequences stand for … in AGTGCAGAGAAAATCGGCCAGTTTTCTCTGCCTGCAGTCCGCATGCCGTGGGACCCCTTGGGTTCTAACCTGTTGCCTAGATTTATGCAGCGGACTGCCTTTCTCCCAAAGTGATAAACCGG…AGGTTGGTTTCACT; site = the 11-nt donor
READOUT_TYPE: recombinant UMI read abundance (log10)

INPUT_SEQUENCE: GGGCCGGCATGGACCGGTTTTCCCGGTAATCCGTATTTGGC (site GGGCCGGCTGC)
READOUT_TYPE: recombinant UMI read abundance (log10)
MEASURED: 0
//
INPUT_SEQUENCE: TAATGATCATGGACCGGTTTTCCCGGTAATCCGTATTTGGG (site TAATGAACTCC)
READOUT_TYPE: recombinant UMI read abundance (log10)
MEASURED: 0.0159
//
INPUT_SEQUENCE: CGGAATCCATGGACCGGTTTTCCCGGTAATCCGTATTTGTA (site CGGAATCCTCA)
READOUT_TYPE: recombinant UMI read abundance (log10)
MEASURED: 0.781
//
INPUT_SEQUENCE: TCAAGAACATGGACCGGTTTTCCCGGTAATCCGTATTTGGG (site TCAAGAACTCC)
READOUT_TYPE: recombinant UMI read abundance (log10)
MEASURED: 0.301
//
INPUT_SEQUENCE: TGCCGATCATGGACCGGTTTTCCCGGTAATCCGTATTTGGT (site TGCCGATCTAC)
READOUT_TYPE: recombinant UMI read abundance (log10)
MEASURED: 0
//
INPUT_SEQUENCE: GCGCGGGCATGGACCGGTTTTCCCGGTAATCCGTATTTGGC (site GCGCGGGCTGC)
READOUT_TYPE: recombinant UMI read abundance (log10)
MEASURED: 2.54
//
INPUT_SEQUENCE: CTCTACACATGGACCGGTTTTCCCGGTAATCCGTATTTGGT (site CTCTACACTAC)
READOUT_TYPE: recombinant UMI read abundance (log10)
MEASURED: 0.0415
//
INPUT_SEQUENCE: GCGATCCCATGGACCGGTTTTCCCGGTAATCCGTATTTGCG (site GCGATCCCTCG)
READOUT_TYPE: recombinant UMI read abundance (log10)
MEASURED: 1.71
//
INPUT_SEQUENCE: CGCAGGCCATGGACCGGTTTTCCCGGTAATCCGTATTTGGG (site CGCAGGCCTCC)
READOUT_TYPE: recombinant UMI read abundance (log10)
MEASURED: 0
